# System: Moraxella catarrhalis (BCA)
# MEASUREMENT_NOTES: MIC, two-fold agar dilution (CLSI), clinical isolates
# Format: cell-based
# CONDITION_INFO: strain BCA 14-5
Provide the reported log10(MIC (anti-bacterial activity)) of each item.
Quick note: numbers are log10 of MIC (anti-bacterial activity), with µg/mL as the unit.

Query block: So what does the record say about log10(MIC (anti-bacterial activity)) for Cc1cnc(NC(=O)[C@@H]2CC3(CC3)CN2C(=O)[C@H](CC2CCCC2)CN(O)C=O)s1 ?
Result block: -0.90

Query block: So what does the record say about log10(MIC (anti-bacterial activity)) for CCCC[C@H](CN(O)C=O)C(=O)N1CC2(CC2)C[C@H]1C(=O)Nc1nc(C)cs1 ?
Result block: -0.90

Query block: So what does the record say about log10(MIC (anti-bacterial activity)) for O=CN(O)C[C@@H](CC1CCCC1)C(=O)N1CC2(CC2)C[C@H]1C(=O)Nc1ccc(F)cn1 ?
Result block: -0.60

Query block: So what does the record say about log10(MIC (anti-bacterial activity)) for CCCC[C@H](CN(O)C=O)C(=O)N1CC2(CC2)C[C@H]1c1nc2ccccc2n1CCN(C)C ?
Result block: 0.90

Query block: So what does the record say about log10(MIC (anti-bacterial activity)) for CCCC[C@H](CN(O)C=O)C(=O)N1CC2(CC2)C[C@H]1C(=O)NC1CC1 ?
Result block: 0.60

Query block: So what does the record say about log10(MIC (anti-bacterial activity)) for Cc1cc(NC(=O)[C@@H]2CC3(CC3)CN2C(=O)[C@H](CC2CCCC2)CN(O)C=O)no1 ?
Result block: -0.30

Query block: So what does the record say about log10(MIC (anti-bacterial activity)) for O=CN(O)C[C@@H](CC1CCCC1)C(=O)N1CC2(CC2)C[C@H]1C(=O)N1CCS(=O)(=O)CC1 ?
Result block: 1.20

Query block: So what does the record say about log10(MIC (anti-bacterial activity)) for CCCC[C@H](CN(O)C=O)C(=O)N1CC2(CC2)C[C@H]1C(=O)Nc1ccno1 ?
Result block: 0.00

Query block: So what does the record say about log10(MIC (anti-bacterial activity)) for CCCC[C@H](CN(O)C=O)C(=O)N1CC2(CC2)C[C@H]1C(=O)Nc1cnccn1 ?
Result block: -0.90

Query block: So what does the record say about log10(MIC (anti-bacterial activity)) for COC(=O)c1sccc1NC(=O)[C@@H]1CC2(CC2)CN1C(=O)[C@H](CC1CCCC1)CN(O)C=O ?
Result block: 0.00

Query block: So what does the record say about log10(MIC (anti-bacterial activity)) for O=CN(O)C[C@@H](CC1CCCC1)C(=O)N1CC2(CC2)C[C@H]1C(=O)NC1CC1 ?
Result block: 0.30

Query block: So what does the record say about log10(MIC (anti-bacterial activity)) for CC(C)(C)c1cc(NC(=O)[C@@H]2CC3(CC3)CN2C(=O)[C@H](CC2CCCC2)CN(O)C=O)no1 ?
Result block: -0.30

Query block: So what does the record say about log10(MIC (anti-bacterial activity)) for O=CN(O)C[C@@H](CC1CCCC1)C(=O)N1CC2(CC2)C[C@H]1C(=O)Nc1cnccn1 ?
Result block: -0.60

Query block: So what does the record say about log10(MIC (anti-bacterial activity)) for O=CN(O)C[C@@H](CC1CCCC1)C(=O)N1CC2(CC2)C[C@H]1C(=O)Nc1ncco1 ?
Result block: 0.60

Query block: So what does the record say about log10(MIC (anti-bacterial activity)) for O=CN(O)C[C@@H](CC1CCCC1)C(=O)N1CC2(CC2)C[C@H]1C(=O)Nc1ccno1 ?
Result block: 0.30

Query block: So what does the record say about log10(MIC (anti-bacterial activity)) for CCCC[C@H](CN(O)C=O)C(=O)N1CC2(CC2)C[C@H]1C(=O)Nc1ccncn1 ?
Result block: -0.60
